cell viability for assorted molecules
test system: NOMO1; experiment: cell viability relative to DMSO control; higher = less cytotoxic; details: RPMI 5 mM glucose + 10% FBS; 48 h; 0.0211 µM
State just the number; it will be interpreted in %.

Solved cases (5 shown):
| molecule | cell viability, % |
| --- | --- |
| C[C@@H](NCc1cc2ccccc2[nH]1)c1cccc2ccccc12 | 86.1 |
| CCC[C@@H](C=O)NC(=O)[C@H](CC(C)C)NC(=O)[C@H](CC(C)C)NC(=O)OCc1ccccc1 | 135 |
| COc1ccc2c(OCc3nnc4ccc(-c5ccccc5)nn34)ccnc2c1 | 116 |
| O=[S+]([O-])(CCSSCC[S+](=O)([O-])[O][Na])[O][Na] | 119 |
| CCc1cccc2c3c([nH]c12)C(CC)(CC(=O)O)OCC3 (configuration not stated) | 102 |

# return recorded cell viability for input `COc1ccc(C(=O)CC(=O)c2ccc(C(C)(C)C)cc2)cc1`
110

Tell me its cell viability given `O=[S+]([O-])(O)c1ccc2cc(/N=N/c3cc([S+](=O)([O-])O)c4cccnc4c3O)ccc2c1` as the entry.
109
